assay-text: qHTS Assay for Inhibitors of Fructose-1,6-bisphosphate Aldolase from Giardia Lamblia: Coupling assay counterscreen; further: on the % scale 0 is the no-effect control and ±100 the full control effect
condition-summary: coupling enzyme system counterscreen, AmpLite Red fluorescence; at 58.2 µM (top of the series)
In all, about 290,000 compounds went through this assay and about 2,000 (0.69%) were called active. Many of the other results were omitted from the sample, so actives are more common in it than they were.
property: activity change, negative = inhibition (%)
Provide the reading as a plain figure in %.

Observe how each entry below is paired with its result.
| compound | activity change, negative = inhibition, % |
| --- | --- |
| CCOc1ccc2[nH]c(=O)c(C(c3nnnn3CCOC)N3CCOCC3)cc2c1 (stereo not drawn) | -2.27 |
| Cc1ccc(C(=O)Nc2cccc3ncccc23)cc1[N+](=O)[O-] | 0.485 |
| CCCc1c(C(=O)Nc2ccc(F)cc2)cnn1-c1ccccc1 | -6.8 |
| O=C(N/N=C/c1cccc(OC(=O)c2ccc([N+](=O)[O-])cc2)c1)c1cccnc1 | 0.693 |
| COc1cccc(CNC(=O)CCC2CCCN(Cc3ccc(OC(F)F)cc3)C2)c1 (stereo not drawn) | 5.02 |

In: Give its activity change, negative = inhibition value. Item: COc1ccc(C=Nc2cccc3ncccc23)cc1
Out: -34.4

In: Give its activity change, negative = inhibition value. Item: COc1ccc(S(=O)(=O)/N=C2\C=C(NS(=O)(=O)c3ccccc3)C(=O)c3ccccc32)cc1
Out: -39.6

In: Give its activity change, negative = inhibition value. Item: CCCN1CCN(CCCNC(=O)CN2C(=O)COc3ccccc32)CC1
Out: -1.3

In: Give its activity change, negative = inhibition value. Item: CN1c2ccc([N+](=O)[O-])cc2C(C)(C)C12C=Cc1cc(C(=O)O)ccc1O2 (stereo not drawn)
Out: 6.4

In: Give its activity change, negative = inhibition value. Item: N#Cc1c(-c2ccccc2)cc(-c2ccccc2)nc1SCC(=O)O
Out: 5.25

In: Give its activity change, negative = inhibition value. Item: COc1cc(-c2c(-c3ccc4c(c3)OCO4)noc2C)ccc1F
Out: 4.94

In: Give its activity change, negative = inhibition value. Item: CN(CCc1ccccn1)C(=O)c1ccc(OC2CCN(CCc3ccccc3)CC2)cc1
Out: 6.37

In: Give its activity change, negative = inhibition value. Item: COC(=O)CC1c2ccccc2C(Cc2ccc(OC)cc2)=C(C)N1C(=O)OC (stereo not drawn)
Out: -0.16

In: Give its activity change, negative = inhibition value. Item: COc1ccc(CC(=O)Nc2c(C(N)=O)oc3ccccc23)cc1
Out: 2.14

In: Give its activity change, negative = inhibition value. Item: Cc1cc(C)c(C#N)c(N2CCC(C(N)=O)CC2)n1
Out: 0.379

In: Give its activity change, negative = inhibition value. Item: O=C(CN1C(=O)COc2ccccc21)Nc1ccc(F)cc1
Out: -7.46

In: Give its activity change, negative = inhibition value. Item: O=C(/C=C/c1ccc(N2CCOCC2)cc1)c1ccccc1
Out: -2.68

In: Give its activity change, negative = inhibition value. Item: O=C(CN1C(=O)COc2ccccc21)NCCN1CCc2ccccc2C1
Out: -31.2

In: Give its activity change, negative = inhibition value. Item: COc1ccc(CNC(=O)C(C)NCc2ccccc2Cl)cc1 (stereo not drawn)
Out: -0.161

In: Give its activity change, negative = inhibition value. Item: N#Cc1c(N2CCCCC2)nc(N)c2c(N)nc(SCC(=O)O)cc12
Out: -31.7

In: Give its activity change, negative = inhibition value. Item: CCN1C(=S)N[C@@H](c2cccc(C(F)(F)F)c2)C(C(=O)OC)=C1C
Out: 2.17

In: Give its activity change, negative = inhibition value. Item: Cc1ccc(/C=C(\C#N)C(=O)Nc2cccc3ncccc23)o1
Out: -39

In: Give its activity change, negative = inhibition value. Item: Cc1cccc(OCCC(=O)Nc2ccccc2C(N)=O)c1
Out: -1.3
